Tested on: IL-1β production in PMA-differentiated THP-1 cells
Assay: IL-1β production in PMA-differentiated THP-1 cells stimulated with gramicidin (hTHP-1 assay containing 2% fetal bovine serum)
Type: cell-based, human
Details: Homo sapiens, THP-1, Table B1; 2% fetal bovine serum; class symbols; read-out: hTHP-1 IC50 (Average IC50 of compounds in hTHP-1 assay)

molecule	assayed target	IC50
CCc1c2c(cc(C(C)C)c1CC(=O)N=S(N)(=O)c1sc(C(C)(C)O)cc1F)COC2 (stereo not shown) [Example 264]	IL-1β production in PMA-differentiated THP-1 cells	200 to 1000 nM
CC(C)c1cc2c(c(C(C)C)c1CC(=O)N=S(N)(=O)c1ccn(C(F)F)n1)COC2 (stereo not shown) [Example 243]	IL-1β production in PMA-differentiated THP-1 cells	5000 to 30000 nM
CC(C)c1cc(C(=O)CC2CCCCC2)cc(C(C)C)c1CC(=O)N=S(N)(=O)c1cc(C(C)(C)O)n(-c2ccccc2)n1 (single isomer, unassigned) [Example 285]	IL-1β production in PMA-differentiated THP-1 cells	1000 to 5000 nM
CC(C)c1cc(C(F)F)nc(C(C)C)c1CC(=O)N=S(N)(=O)c1sc(CN(C)C)cc1F (single isomer, unassigned) [Example 306]	IL-1β production in PMA-differentiated THP-1 cells	200 to 1000 nM
CC(C)c1ccc(F)c(C(C)C)c1CC(=O)N=S(=O)(NC(=O)Cc1c(C(C)C)ccc(F)c1C(C)C)c1ccc(CN(C)C)nc1 (stereo not shown) [Example 225]	IL-1β production in PMA-differentiated THP-1 cells	5000 to 30000 nM
CC(C)c1ncc(F)c(C(C)C)c1CC(=O)N=S(N)(=O)c1sc(C(C)(C)O)cc1F (stereo not shown) [Example 149]	IL-1β production in PMA-differentiated THP-1 cells	200 to 1000 nM
CC(C)c1cc2c(c(C(C)C)c1CC(=O)N=[S@@](N)(=O)c1cnc(C(C)(C)O)s1)OC(F)(F)O2 [Example 231]	IL-1β production in PMA-differentiated THP-1 cells	200 to 1000 nM
CC(C)c1cc2c(cnn2C)c(C(C)C)c1CC(=O)N=S(N)(=O)c1cnc(C(C)(C)O)s1 (stereo not shown) [Example 262]	IL-1β production in PMA-differentiated THP-1 cells	5000 to 30000 nM
CC(C)c1cc(C#N)cc(C(C)C)c1CC(=O)N=S(N)(=O)c1sc(C(C)(C)O)nc1CO (stereo not shown) [Example 22]	IL-1β production in PMA-differentiated THP-1 cells	200 to 1000 nM
CC(C)c1cc2c(c(C(C)C)c1CC(=O)N=S(N)(=O)c1ccc(CN(C)C)cc1)COC2 (stereo not shown) [Example 134]	IL-1β production in PMA-differentiated THP-1 cells	1000 to 5000 nM
CC(C)c1cc(-c2ccc3c(c2)COCC3)cc(C(C)C)c1CC(=O)N=S(N)(=O)c1cnc(C(C)(C)O)s1 (stereo not shown) [Example 97]	IL-1β production in PMA-differentiated THP-1 cells	200 to 1000 nM
CNCc1ccc(S(N)(=O)=NC(=O)Cc2c(C(C)C)cc(C(F)F)cc2C(C)C)cc1 (stereo not shown) [Example 255]	IL-1β production in PMA-differentiated THP-1 cells	5000 to 30000 nM
CC(C)c1cc(C(F)F)cc(C(C)C)c1CC(=O)N=S(N)(=O)c1ncc(CN(C)C)cc1F (stereo not shown) [Example 250]	IL-1β production in PMA-differentiated THP-1 cells	5000 to 30000 nM
